experiment_notes: total protein half-life in vivo (active degradation + dilution); higher = more stable protein
stated_conditions: E. coli NCM3722 delta-clpP; growth: N-lim chemostat; doubling time 6 h
value_type: total protein half-life in vivo

seq_string="MPYKTKSDLPESVKHVLPSHAQDIYKEAFNSAWDQYKDKEDRRDDASREETAHKVAWAAVKHEYAKGDDDKWHKKS [P0AE63]" observed_value="4.36 h"

Pending sequence:
total protein half-life in vivo reading for MSETASWQPSASIPNLLKRAAIMAEIRRFFADRGVLEVETPCMSQATVTDIHLVPFETRFVGPGHSQGMNLWLMTSPEYHMKRLLVAGCGPVFQLCRSFRNEEMGRYHNPEFTMLEWYRPHYDMYRLMNEVDDLLQQVLDCPAAESLSYQQAFLRYLEIDPLSADKTQLREVAAKLDLSNVADTEEDRDTLLQLLFTFGVEPNIGKEKPTFVYHFPASQASLAQISTEDHRVAERFEVYYKGIELANGFHELTDAREQQQRFEQDNRKRAARGLPQHPIDQNLIEALKVGMPDCSGVALGVDRLVMLALGAETLAEVIAFSVDRA [P0A8N7] : 4.37 h
